Where these numbers come from: the array DNA melting data of Ke et al. (doi:10.1101/2024.01.08.574731)

- assay-name: folding enthalpy; higher = less favourable; fluorescence melt of hairpins on a sequencing array, two-state fit
- test-settings: sodium 0.088 M
Entries annotated with measured folding enthalpy
// return numeric value only (unit: kcal/mol, not printed)

Answered examples (10):
>>> meas_value("GATCGTGGATACGATC ((((((....))))))")
-51.4
>>> meas_value("GGGGATCGAAAGATTCCC (((.(((....))).)))")
-53.6
>>> meas_value("GCGTGCGAAAGCATCCGC ((((((....)))..)))")
-17.3
>>> meas_value("GACTGCGGAAACGCGGTC (((.(((....))).)))")
-34.1
>>> meas_value("GACCGGGGAAACCCGATC ((.((((....)))).))")
-19.9
>>> meas_value("CGGTATCGGAAACGACCG (((..(((....))))))")
-27.8
>>> meas_value("GTCCCAGGAAACCAGGAC ((((..(....)..))))")
-21.2
>>> meas_value("AAGGTGAAAACCTT (((((....)))))")
-17.5
>>> meas_value("GATCACTCAAGTGATC ((((((....))))))")
-49.2
>>> meas_value("GTGACGGGAAACCGTTAC ((.((((....)))).))")
-22.2

Prompt line: # input sequence: GAAAAGGCGAAAGCCTTC (((..(((....)))))) ; wanted: its folding enthalpy
Response line: -9.06

Prompt line: # input sequence: GTGGGTGGAAACGCCCAC (((((.(....).))))) ; wanted: its folding enthalpy
Response line: -40.3

----------
- assay-name: melting temperature; fluorescence melt of hairpins on a sequencing array, two-state fit, raised by 9.35 °C to match UV melts
- test-settings: sodium 0.088 M
result-type: Tm
Please report the result as a number followed by the unit.

>>> meas_value("GGTCTAGAAATAGACC ((((((....))))))")
"51.8 °C"
>>> meas_value("GCGGAGCGAAAGCAGCGC (((..((....))..)))")
"58 °C"
>>> meas_value("GGCGGAGCGAAAGCTGCC (((..(((....))))))")
"52.3 °C"
>>> meas_value("GTGAATCGAAAGATCCAC (((.(((....))).)))")
"43.4 °C"
>>> meas_value("GCATCGGGAAACTGATGC (((((.(....).)))))")
"55.7 °C"

Here's the next entry for you.
Prompt line: # input sequence: GCAGTGCGAAAGCTCTGC ((((.((....)).)))) ; wanted: its Tm
Response line: 65.8 °C

----------
- assay-name: melting temperature; fluorescence melt of hairpins on a sequencing array, two-state fit, raised by 9.35 °C to match UV melts
- test-settings: sodium 0.088 M
The recorded Tm of each item maps onto one of these classes: lower range (below 40 °C), middle range (40 °C to below 50 °C), upper range (50 °C or more)

Sample answers from the record:
>>> group("GATCCCACGCGGGATC ((((((....))))))")
"upper range"
>>> group("GATCTCTGTGAGATC ((((((...))))))")
"upper range"
>>> group("CCGTGGAAACACGG (((((....)))))")
"upper range"

Prompt line: Place this sequence in its band: GAGTTCGCGAAAGCGCTC (((..(((....))))))
Response line: lower range

Prompt line: Place this sequence in its band: GCACCCGAAAGGGTATGC ((((((....)))..)))
Response line: middle range

Prompt line: Place this sequence in its band: GATCCTGTAAAGGATC ((((((....))))))
Response line: upper range

Prompt line: Place this sequence in its band: GGTGAAGGAAACTTCATC (.(((((....))))).)
Response line: middle range

Prompt line: Place this sequence in its band: GACCTGGAAACAGGTC ((((((....))))))
Response line: upper range

Prompt line: Place this sequence in its band: GACTCGGCGAAAGCCGTC (((..(((....))))))
Response line: lower range

Prompt line: Place this sequence in its band: GTGCGCCGAAAGGCTCAC (((.(((....))).)))
Response line: upper range

Prompt line: Place this sequence in its band: GCGTTTCAACGC ((((....))))
Response line: upper range

Prompt line: Place this sequence in its band: GATCTCATGCGAGATC ((((((....))))))
Response line: upper range

Prompt line: Place this sequence in its band: GCAACTCGAAAGAGTGC (((.(((....))))))
Response line: upper range
